Each recorded value in this set is attributed to PubChem BioAssay AID248.

- Tested on: L1210 leukemia ip in BDF1 mice, survival T/C
- assay_remarks: NCI In Vivo Anticancer Drug Screen. Data for tumor model L1210 Leukemia (intraperitoneal) in B6D2F1 (BDF1) mice
- test_parameters: endpoint: mean survival time; dose: 200.0 mg/kg/injection; schedule: Q04DX002 (ip); vehicle: gum acacia; higher = longer survival
Inconclusive results and toxic doses are left out.
The entries below are paired with their reported T/C.
quantity_name: T/C

• O=C(/C=C\c1ccccc1Cl)c1ccccc1 = 95 % of control
• Nc1ccccc1SC1CC(=O)N(c2ccc(Br)cc2)C1=O (centres undefined) = 88 % of control
• O=C(CC(=O)c1ccccc1)c1ccccc1.O=C(CC(=O)c1ccccc1)c1ccccc1.O=C(CC(=O)c1ccccc1)c1ccccc1.[Al] = 97 % of control
• CC12CCC(O)CC1CCC1C2CCC2(C)C(C(=O)O)CCC12 (centres undefined) = 86 % of control
